Value source: PubChem BioAssay (NCI)

- Test system: NCI-H460 lung
- run.description: NCI-60 one-dose screen, 48 h
- measurement.setup: 10 µM unless noted
Compounds without any hit were thinned out: in the full panel of roughly 83,000, 20% have a hit. Active and inactive are the calls of the source. The calls were made as follows: active = growth percent below 10; inactive = the rest.
Outcome codes: 1 (yes) = active, 0 (no) = inactive

> print(dat)
                                    molecule  qualitative.label
 1  COc1ccc(/C=C/C(=O)c2ccc(OC)c(S(N)(=O)=O)c2)c(C(F)(F)F)c1            1 (yes)
 2  COc1ccc(NC(=O)Nc2nc3ccc([N+](=O)[O-])cc3s2)cc1            1 (yes)
 3  Fc1cccc(CNc2nc(SCCN3CCOCC3)nc3c2cnn3CC(Cl)c2ccc(Br)cc2)c1 (stereo not given)            1 (yes)
 4  N#Cc1cc(-c2ccnc(Nc3ccc(N4CCN(C5COC5)CC4)cc3)n2)ccc1N1CCCC1             0 (no)
 5  O=C1CC(c2ccc(I)cc2)OC2C=Cc3ccccc3C12 (stereo not given)             0 (no)
 6  COc1cc(C2C(C(=O)OCc3ccccc3)=C(C)Nc3nc4ccccc4n32)cc(OC)c1OC (stereo not given)             0 (no)
 7  Cc1ccc2nc(SCc3ccccc3F)n(-c3ccccc3)c(=O)c2c1             0 (no)
 8  COc1ccc2oc(=O)c(-c3csc(N/N=C(\C)c4cc(OC)c(OC)c(OC)c4)n3)cc2c1             0 (no)
 9  COc1ccc(N=Nc2c(N)nn3c(-c4cc5ccccc5oc4=O)ccnc23)cc1             0 (no)
10  O=C1Nc2cc(-c3ccc(NS(=O)(=O)c4ccc(F)c(Cl)c4)cc3)ccc2/C1=C/c1ccc[nH]1            1 (yes)

###

- Tested on: CAKI-1 renal
- run.description: NCI-60 one-dose screen, 48 h
- measurement.setup: 10 µM unless noted
This is part of a sample that, as a whole, favours compounds with a hit. Of some 83,000 tested, about 20% had one in any assay. Calls of active or inactive are those of the source. Rule for the calls: active = growth percent below 10; inactive = the rest.
Outcomes: active, inactive

> print(dat)
                                    molecule  qualitative.label
 1  O=C(N/N=C/c1occc1Br)c1[nH]c2ccc(Br)cc2c1-c1ccccc1             active
 2            CC(=O)C[n+]1cccc2c3ccccc3ccc21           inactive
 3  O=C(Nc1ccc(F)cc1)Nc1nc2ccc([N+](=O)[O-])cc2s1             active
 4  COc1ccc(-c2nc3ccccc3n2CC(=O)N=Nc2c(O)[nH]c3ccc(Br)cc23)cc1           inactive
 5  Cc1cc(C)c2[nH]c(=O)c(C(c3nnnn3Cc3ccc4c(c3)OCO4)N3CCN(C)CC3)cc2c1 (stereo not given)           inactive
 6  COc1ccc(N=Nc2c(N)nn3c(-c4cc5ccccc5oc4=O)ccnc23)cc1           inactive
 7     N/C(=N\c1nc2ccccc2s1)NC(=O)Nc1ccccc1F           inactive
 8  COC(=O)c1cc(C(C)=O)n2c3ccccc3c3ccccc3c12           inactive
 9  Cc1ccc(Cl)cc1NC(=O)Nc1nc2ccc([N+](=O)[O-])cc2s1             active
10  O=C(c1ccc(Cl)cc1)C1[C@H](c2ccccc2Cl)[C@@H](c2ccccc2)NC12C(=O)Nc1ccc(Br)cc12 (stereo not given in full)             active
